Assign Relative Potentiation for GABAA1 to each entry below.
Target: GABAA receptor α1β2γ2 (Homo sapiens, UniProt P14867+P18507)
Construct: expressed in transfected cells; host or cells: Xenopus laevis oocytes injected with cRNA
Sequence (P14867 28-456): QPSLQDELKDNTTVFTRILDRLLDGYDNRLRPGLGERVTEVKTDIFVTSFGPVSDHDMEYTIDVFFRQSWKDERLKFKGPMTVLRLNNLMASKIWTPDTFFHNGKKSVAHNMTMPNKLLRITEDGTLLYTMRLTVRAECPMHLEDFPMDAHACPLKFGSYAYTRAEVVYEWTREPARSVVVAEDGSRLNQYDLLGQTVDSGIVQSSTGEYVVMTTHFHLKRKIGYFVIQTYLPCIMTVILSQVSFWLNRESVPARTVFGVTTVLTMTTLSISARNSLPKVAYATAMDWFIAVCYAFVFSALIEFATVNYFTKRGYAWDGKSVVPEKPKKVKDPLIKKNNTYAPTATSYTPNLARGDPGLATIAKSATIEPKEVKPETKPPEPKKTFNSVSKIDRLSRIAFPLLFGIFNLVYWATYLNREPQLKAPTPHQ
Sequence (P47870 25-512 partner limits assumed): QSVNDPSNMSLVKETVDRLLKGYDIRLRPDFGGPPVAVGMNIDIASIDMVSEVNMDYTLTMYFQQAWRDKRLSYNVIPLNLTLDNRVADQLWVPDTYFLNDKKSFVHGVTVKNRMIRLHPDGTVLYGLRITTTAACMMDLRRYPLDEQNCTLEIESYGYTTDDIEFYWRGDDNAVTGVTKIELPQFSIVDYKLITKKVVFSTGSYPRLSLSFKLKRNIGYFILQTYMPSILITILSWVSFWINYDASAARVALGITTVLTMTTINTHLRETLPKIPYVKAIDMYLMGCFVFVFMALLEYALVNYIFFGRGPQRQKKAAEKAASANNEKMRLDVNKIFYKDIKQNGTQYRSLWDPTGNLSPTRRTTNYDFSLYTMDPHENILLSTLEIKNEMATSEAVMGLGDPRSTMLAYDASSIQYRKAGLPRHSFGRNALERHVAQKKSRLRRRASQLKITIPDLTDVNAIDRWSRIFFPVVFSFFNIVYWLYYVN
Sequence (P18507 40-475): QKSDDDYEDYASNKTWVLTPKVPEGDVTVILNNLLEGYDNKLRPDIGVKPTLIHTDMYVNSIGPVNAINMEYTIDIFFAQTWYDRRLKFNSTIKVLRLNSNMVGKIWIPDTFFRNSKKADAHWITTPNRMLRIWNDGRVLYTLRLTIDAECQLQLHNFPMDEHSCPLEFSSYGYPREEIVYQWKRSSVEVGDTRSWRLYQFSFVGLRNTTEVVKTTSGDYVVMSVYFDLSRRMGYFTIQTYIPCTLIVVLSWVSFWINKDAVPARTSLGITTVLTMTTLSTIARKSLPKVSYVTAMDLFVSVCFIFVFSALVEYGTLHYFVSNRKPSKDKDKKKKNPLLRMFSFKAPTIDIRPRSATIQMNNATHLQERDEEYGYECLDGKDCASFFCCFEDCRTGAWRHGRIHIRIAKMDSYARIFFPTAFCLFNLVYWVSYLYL
Assay: Two-electrode voltage-clamp potentiation of GABA EC10 current in Xenopus oocytes, GABAA1
Format: cell-based
Conditions: percentage potentiation of GABA EC10 current divided by that of diazepam
Numbers only.

Example cases with answers are listed next.
- chem-smiles: "CCCN1Cc2nc3c(-c4ccc(F)cc4OC)cccc3c(N)c2C1=O"
  measured-parameter: "Relative Potentiation for GABAA1"
  value-measured: 0.2
- chem-smiles: "Cc1nc(F)ccc1-c1cccc2c(N)c3c(nc12)CN(C1CCC1)C3=O"
  measured-parameter: "Relative Potentiation for GABAA1"
  value-measured: 0.13

Return reported Relative Potentiation for GABAA1 values for all items listed beneath this line.
1. Nc1c2c(nc3c(-c4cccc(F)c4F)cccc13)CN(C1CC1)C2=O
2. COc1ccc(OC)c(-c2cccc3c(N)c4c(nc23)CN(Cc2ccc3c(c2)OCO3)C4=O)c1

1. 0.033
2. 0.33

Return reported Relative Potentiation for GABAA1 values for all items listed beneath this line.
1. Nc1c2c(nc3c(-c4cc(Cl)ccc4Cl)cccc13)CN(C1CC1)C2=O
2. COc1cccc(F)c1-c1c(F)ccc2c(N)c3c(nc12)CN(C1CC1)C3=O
3. COc1ccc(CN2Cc3nc4c(-c5cncc(OC)c5)cccc4c(N)c3C2=O)cc1
4. Nc1c2c(nc3c(-c4cnccn4)cccc13)CN(C1CCC1)C2=O

0.094
−0.075
0.22
−0.066

Could you tell me which Relative Potentiation for GABAA1 is on file for COc1ncccc1-c1cccc2c(N)c3c(nc12)CN(Cc1ccc2c(c1)OCO2)C3=O ?
0.24

----------
Biological target: GABAA receptor α1β2γ2 (Homo sapiens, UniProt P14867+P18507)
Construct: expressed in transfected cells; host or cells: Xenopus laevis oocytes injected with cRNA
Experiment: Two-electrode voltage-clamp potentiation of GABA EC10 current in Xenopus oocytes, GABAA1
Type: cell-based
Conditions: percentage potentiation of GABA EC10 current divided by that of diazepam
Relative Potentiation for GABAA1 vs 0.07: less than gives satisfied; not less than gives not satisfied.

- compound: "CCCN1Cc2nc3c(-c4cc(F)ncc4OC)cccc3c(N)c2C1=O"
  class: "not satisfied"
- compound: "COc1cc(C)c(-c2c(F)ccc3c(N)c4c(nc23)CN(C2CCC2)C4=O)cn1"
  class: "satisfied"
- compound: "N#Cc1ccccc1-c1cccc2c(N)c3c(nc12)CN(C1CCC1)C3=O"
  class: "satisfied"
- compound: "COc1ncc(-c2cccc3c(N)c4c(nc23)CN(Cc2ccc(OC)c(OC)c2)C4=O)c(OC)n1"
  class: "not satisfied"
- compound: "CCCN1Cc2nc3c(-c4cc(OC)cnc4Cl)cccc3c(N)c2C1=O"
  class: "not satisfied"
- compound: "C=Cc1ccccc1-c1c(F)ccc2c(N)c3c(nc12)CN(C1CCC1)C3=O"
  class: "not satisfied"
- compound: "COc1cccc(F)c1-c1cccc2c(N)c3c(nc12)CN(C1CC1)C3=O (atropisomer, axis not shown; (P))"
  class: "satisfied"
- compound: "COc1ccc(-c2c(F)ccc3c(N)c4c(nc23)CN(C2CC2)C4=O)c(F)c1"
  class: "satisfied"

Field: below-cutoff. Rule: recorded Relative Potentiation for GABAA1 strictly less than 0.07. Subject: Nc1c2c(nc3c(-c4ccc(N5CCOCC5)nc4)cccc13)CN(C1CCC1)C2=O
satisfied

Record: COc1cc(-c2cccc3c(N)c4c(nc23)CN(C2CCC2)C4=O)c(C#N)cn1
satisfied

Record: COc1ccc(CN2Cc3nc4c(-c5c(F)cccc5OC)cccc4c(N)c3C2=O)cc1OC
not satisfied

Record: COc1ccncc1-c1cccc2c(N)c3c(nc12)CN(Cc1ccc2c(c1)OCO2)C3=O
not satisfied

Record: CCCN1Cc2nc3c(-c4ccc(OC)c(OC)c4)cccc3c(N)c2C1=O
not satisfied

Record: COc1ncc(-c2cccc3c(N)c4c(nc23)CN(Cc2ccc3c(c2)OCO3)C4=O)c(OC)n1
not satisfied
